IGROV1 ovarian measurements of GI50, listed per entry.

entry_smiles | GI50
N#Cc1c(-c2ccccc2)cc(-c2ccc(Nc3nc(Nc4ccc(Cl)cc4)nc(Nc4ccc(Cl)cc4)n3)cc2)nc1N | 1.34 µM
NC(=O)c1cc(Br)cc(C2CCCCC2)c1O | 12.4 µM
C=C1C(=O)O[C@H]2[C@H]1CC/C(COC(=O)NCc1ccc(Cn3c(=O)sn(CCCCl)c3=O)cc1)=C\CC[C@@]1(C)O[C@@H]21 | 1.78 µM

Your task in this section: give GI50 for each listed record.
1. COc1ccccc1NC(=O)n1nc(N)c2ccccc21
2. CC(=O)O[C@H]1CC[C@@]2(C)C(=CC[C@H]3[C@@H]4C/C(=C\c5cccc(OCCN6CCOCC6)c5)[C@H](OC(C)=O)[C@@]4(C)CC[C@@H]32)C1
3. COc1cc2c3c(n(CCCNCCN)c(=O)c2cc1OC)-c1cc2c(cc1C3=O)OCO2
4. O=C(Nc1ccc(F)cc1)c1c(NC(=O)C(F)(F)F)sc2c1CCCCC2
5. CCOC(=O)c1[nH]c(-c2ccc(Cl)cc2)cc1-c1cccnc1
6. O=C(NCCCNc1cc(-c2cn(-c3ccccc3)nc2-c2cccc(O)c2)ccn1)c1ccccc1
7. Cc1cc(C)c(C[N+](C)(C)C)c(C)c1C
8. COc1ccc2c(Nc3ccc(NS(C)(=O)=O)cc3)c3ccccc3nc2c1

1: 14.7 µM; 2: 25.6 µM; 3: 0.839 µM; 4: 2.99 µM; 5: 1.37 µM; 6: 4.2 µM; 7: 0.477 µM; 8: 0.418 µM

Your task in this section: give GI50 for each listed record.
1. CC[C@@]1(O)C(=O)NCc2c1cc1n(c2=O)Cc2cc3c(N)cccc3nc2-1
2. CC1(C)OC(=O)C=C([O-])O1.CC1(C)OC(=O)C=C([O-])O1.O=S(=O)([O-])c1ccc([O-])c2ncccc12.O=S(=O)([O-])c1ccc([O-])c2ncccc12.[Ti+4]
3. N=C(N=C(N)N)N1CCN(c2ccncc2)CC1
4. COc1ccc(-c2cc(/C=C3\C(=O)Nc4ccc(Cl)cc43)[nH]n2)cc1

1. 10.1 µM
2. > 100 µM
3. > 1000 µM
4. 5 µM

----------
# System: A549 NSCLC
// one of TRUE = active, FALSE = inactive, no free text

// below: answered molecules
molecule | answer_label
OCC1OC(n2ccc3c(NO)ncnc32)C(O)C1O (centres undefined) | TRUE
O=S(=O)(NCC1CCC(CNc2ccc(Cl)cc2)CC1)c1ccc(-c2ccccc2)cc1 (centres undefined) | FALSE

Short answer needed: outcome of this test for "Cc1cc(C)c(C[N+](C)(C)C)c(C)c1C" ?
TRUE

Short answer needed: outcome of this test for "COc1cc(/C=C\[N+](=O)[O-])ccc1OCc1ccccc1" ?
FALSE

Short answer needed: outcome of this test for "Cn1ncc2c(N)nc(N3CCCCC3)nc21" ?
FALSE

Short answer needed: outcome of this test for COC1CC2C=C(C)/C=C/C=C/C(=O)NC(c3ccccc3)C/C=C/CCC(O)CC(=O)C2=C1O (centres undefined) ?
TRUE

----------
# Test system: SR leukemia
# assay_procedure: NCI tumour cell line growth inhibition, 48 h
Assignment: determine reported TGI for the given molecules.

Look over these answered cases.
molecule | recorded_measurement
COc1ccccc1-c1cc(=O)c2ccccc2[nH]1 | > 100 µM
O=C(Nc1ccc(F)cc1)c1c(NC(=O)C(F)(F)F)sc2c1CCCCC2 | > 100 µM
O=[N+]([O-])c1ccc(N/N=C/c2c(O)ccc3ccccc23)nc1 | > 100 µM
COC(=O)C(CCc1ccccc1I)C1=CCC2(CC1)OCCO2 (configuration not stated) | > 100 µM

Your task in this section: give TGI for each listed record.
1. C(=N\OCc1ccccc1)/c1ncccc1C1OCCO1
2. NNc1cccc(/C=C/c2ccccc2)cc1=O
3. CN1C(=S)C(c2ccccc2)Sc2ccccc21 (configuration not stated)
4. COc1cc(OC)c(OC)cc1/C=C\c1nccc2ccccc12
5. CCNC(=O)C#CC(=O)NCC
6. CC(=O)OCCOCNC(=S)N/N=C(\C)c1cnc2ccccc2n1

> 100 µM
> 100 µM
> 100 µM
> 100 µM
> 61.4 µM
> 100 µM

Your task in this section: give TGI for each listed record.
1. C=C=C(CC)C(C(=O)OC)N(CC)CC (configuration not stated)
2. Cc1nc2ccc(Nc3nc(NCCN4CCOCC4)nc(Nc4ccc(F)cc4)n3)cc2n1Cc1ccccc1

1. > 100 µM
2. 5.23 µM

----------
RPMI-8226 leukemia measurements of GI50, listed per entry.

compound | GI50
C#CC1(O)C(COP(=O)(O)OC2CC(n3cc(F)c(=O)[nH]c3=O)OC2CO)OC(n2ccc(N)nc2=O)C1O (configuration not stated) | < 0.01 µM
N#Cc1cnc2cc(OC[C@@H](O)CO)c(NC(=O)CC3CSSC3)cc2c1Nc1ccc(OCc2cccc(F)c2)c(Cl)c1 | 0.557 µM
NNc1cccc(/C=C/c2ccccc2)cc1=O | 3.85 µM
COC1CC2C=C(C)/C=C/C=C/C(=O)NC(c3ccccc3)C/C=C/CCC(O)CC(=O)C2=C1O (configuration not stated) | 0.186 µM
COc1cc(/C=C\[N+](=O)[O-])ccc1OCc1ccccc1 | 0.43 µM
COCCOC(=O)NC(=O)Nc1ccc(/C(=N/O)c2ccc(Cl)cc2)cc1 | 0.129 µM

Your task in this section: give GI50 for each listed record.
1. CC/C=C\C[C@H](O)C/C=C1/C(=O)C=C[C@@H]1C/C=C\CCCC(=O)N(C)C
2. CCOC(=O)C(Cc1c[nH]c2ccc(N(CCCl)CCCl)cc12)(NC(C)=O)C(=O)OCC
3. CCOC(=O)C(=Cc1ccccc1[N+](=O)[O-])C(=O)OCC

1: 0.671 µM; 2: 6.41 µM; 3: 3.69 µM

----------
Assignment: determine reported TGI for the given compounds.
# Tested on: RPMI-8226 leukemia
# assay_procedure: NCI tumour cell line growth inhibition, 48 h

Look over these answered cases.
entry_smiles | TGI
O=C(Nc1c[nH]c(=O)[nH]c1=O)C(Cl)Cl | > 100 µM
O=[N+]([O-])/C(C(Cl)=C(Cl)Cl)=C1\NCCO1 | > 100 µM
NNc1nc2ccccc2c(=O)n1NC(=O)C(=O)Nc1cccc(C(F)(F)F)c1 | > 100 µM

Your task in this section: give TGI for each listed record.
1. COC(=O)c1c2c(c(C)[n+]([O-])c1C)C(=O)C=C(NCc1ccc(F)c(F)c1)C2=O
2. CC1(C)N=C(C(N)=O)c2ncn(CCO)c2N1

1. 3.23 µM
2. > 100 µM

----------
# System: ACHN renal
# assay_procedure: NCI tumour cell line growth inhibition, 48 h
metric_name: TGI

Look over these answered cases.
compound | TGI
Cc1ccc(S(=O)(=O)NC(=O)NC23CC4CC(CC(F)(C4)C2)C3)cc1 | > 100 µM
O=C(Nc1nc2ccccc2n1Cc1ccccc1)NC12CC3CC(CC(C3)C1)C2 | > 100 µM
CCOC(=O)c1cc(C(=O)c2ccccc2)n2nc(-c3ccc(Cl)cc3)ccc12 | 28.2 µM

Your task in this section: give TGI for each listed record.
1. CCOC(=O)/C(=C\c1ccc(N(C)C)cc1)S(=O)(=O)C(F)(F)C(F)(F)C(F)(F)C(F)(F)F
2. CC(C)c1ccc(C(=O)Nc2sc3c(c2C#N)CCC(=O)C3)cc1
3. c1ccc(C2=Nc3nc4ccccc4n3C(c3ccccc3)C2)cc1 (configuration not stated)

["> 100 µM", "1.06 µM", "> 100 µM"]

Your task in this section: give TGI for each listed record.
1. CN(C)c1nc(NC23CC4CC(CC(C4)C2)C3)nc(N(C)C)n1
2. CC(C)SC(C)(NC(=O)C1C(C)(C)CCC1(C)C)C(=O)O (configuration not stated)
3. COc1c(C(=O)O)oc2c(OC)cccc12
4. ClC(Cl)(Cl)C1=N[C@H]2[C@H](Br)[C@@H]3O[C@@H](c4ccccc4)[C@H](c4ccccc4)O[C@@H]3[C@H]2O1
5. COc1ccc2[nH]c(Cl)c(/C=C3/C(=O)Nc4cc(C)c(OC)cc43)c2c1
6. Cc1ccsc1/C=N/Nc1cc(C)c2cccc(C)c2n1
7. COC(=O)/C=C(\C)C(=O)N(C)c1ccccc1I

> 100 µM
> 100 µM
> 100 µM
31.3 µM
21.4 µM
> 100 µM
> 100 µM

Your task in this section: give TGI for each listed record.
1. OCC1OC(n2ccc3c(NO)ncnc32)C(O)C1O (configuration not stated)
2. COc1ccccc1NC(=O)n1nc(N)c2ccccc21
3. Cc1nc2c(n1C(C)(C)C)C(=O)c1ccccc1C2=O
4. Nc1nnc2cc(Cl)ccc2n1
5. N#Cc1cnc2cc(OC[C@@H](O)CO)c(NC(=O)CC3CSSC3)cc2c1Nc1ccc(OCc2cccc(F)c2)c(Cl)c1
6. Clc1ccc(Cc2nc3ccc(CCN4CCN(c5ccccc5)CC4)cc3[nH]2)cc1

3.17 µM
> 100 µM
> 100 µM
> 100 µM
2.87 µM
> 100 µM

Your task in this section: give TGI for each listed record.
1. COC1OC(CO)C(O)C(O)C1Br (configuration not stated)
2. CCN1C(=S)N(CC)C2C1NC(=S)N2/N=C/C=C/c1ccccc1 (configuration not stated)
3. CO/C1=C\C(C)=C\C(C)C(O)C(C)C/C(C)=C/C=C/C(OC)C(C(C)C(O)C(C)C2(O)CC(O)C(C)C(C(C)C)O2)OC1=O (configuration not stated)
4. Cc1cc(-c2[nH]c(C(=O)O)cc2I)on1
5. CC(C)=CC(=O)O[C@H]1C(=O)O[C@@H]2C[C@H]3[C@H](C)C(=O)C(O[C@@H]4O[C@H](CO)[C@@H](O)[C@H](O)[C@H]4O)=C[C@]3(C)[C@H]3[C@@H](O)[C@H](O)[C@]4(C(=O)O)OC[C@]32[C@@H]14
6. CCOC(=O)Oc1cc2c(c(OC)c1OC)-c1ccc(SC)c(=O)cc1C(NC(=O)C(F)(F)F)CC2 (configuration not stated)
7. CCOC(=O)c1[nH]c(-c2ccc(Cl)cc2)cc1-c1cccnc1
8. CN1c2ccccc2N(C)C2C1N(C)c1ccccc1N2C (configuration not stated)

> 100 µM
18.9 µM
13.2 µM
> 100 µM
> 100 µM
52.8 µM
> 100 µM
> 100 µM
